- TGT: PKK in kaolin activated human platelet poor plasma (Homo sapiens, UniProt P03952)
- Construct: Platelet poor plasma (PPP) obtained from human wholeblood
- Sequence (P03952 391-638 limits assumed): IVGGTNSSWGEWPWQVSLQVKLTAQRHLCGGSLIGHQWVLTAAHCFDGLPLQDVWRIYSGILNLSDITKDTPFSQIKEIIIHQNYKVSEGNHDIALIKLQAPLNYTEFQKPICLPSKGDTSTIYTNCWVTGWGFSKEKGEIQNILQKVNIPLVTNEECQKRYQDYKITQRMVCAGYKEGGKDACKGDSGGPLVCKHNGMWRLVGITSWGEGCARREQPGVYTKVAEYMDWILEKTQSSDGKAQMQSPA
- Sequence (P03952 20-390 limits assumed): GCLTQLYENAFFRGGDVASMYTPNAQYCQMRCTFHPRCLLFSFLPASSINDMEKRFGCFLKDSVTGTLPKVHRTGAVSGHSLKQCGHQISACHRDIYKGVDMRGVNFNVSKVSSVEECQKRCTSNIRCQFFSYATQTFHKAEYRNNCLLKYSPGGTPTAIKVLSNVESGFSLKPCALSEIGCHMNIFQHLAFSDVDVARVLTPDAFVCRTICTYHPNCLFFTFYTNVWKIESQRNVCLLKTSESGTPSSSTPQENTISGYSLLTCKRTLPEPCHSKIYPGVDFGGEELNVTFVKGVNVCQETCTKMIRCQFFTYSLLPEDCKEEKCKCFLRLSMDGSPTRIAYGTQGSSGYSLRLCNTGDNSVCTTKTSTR
- PROCEDURE DETAILS: Inhibition of PKK in kaolin activated human PPP;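 note: readout is the rate of fluorogenic substrate cleavage in rfu per min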
- CONDITIONS USED: 25-750 μg/mL kaolin, global fit, text b200 calls the values IC90
PROPERTY LABEL: IC50 (nM)
Just the number please, in nM, no unit attached.

Which IC50 value belongs to CCCc1nc(N2CC3C(C2)C3(F)F)ccc1Cn1cc(C(=O)N[C@@H]2CCc3c2ncn3C)cn1 (some centres unmarked) ?
328

Recorded IC50 for CCCc1nc(N2CC3C(C2)C3(F)F)ccc1Cn1cnc(C(=O)N[C@@H]2CCc3c2ncn3C)c1 (some centres unmarked) , please?
839

Need IC50 of Cn1cnc2c1CC[C@H]2NC(=O)c1cn(Cc2ccc(N3CC4(CC4)C3)nc2F)nn1 , thanks.
789

Item CCc1nc(N2CC3C(C2)C3(F)F)ccc1Cn1cc(C(=O)N[C@@H]2CCc3c2ncn3C)nn1 (some centres unmarked) has what recorded IC50?
414

IC50 lookup needed for Cn1cnc2c1CC[C@H]2NC(=O)c1cnn(Cc2ccc(N3CC4C(C3)C4(F)F)nc2CO)c1 (some centres unmarked) , thanks.
110

Return reported IC50; argument: Cc1nc(N2CC3CC3C2)ccc1Cn1cc(C(=O)N[C@@H]2CCc3c2ncn3C)c(CO)n1 (some centres unmarked)
624

Requested field: IC50. Item: Cc1nc(N2CC3CC3C2)ncc1Cn1cc(C(=O)N[C@@H]2CCc3c2ncn3C)nn1 (some centres unmarked)
756

Requested field: IC50. Item: Cn1cnc2c1CC[C@H]2NC(=O)c1cnn(Cc2ccc(N3CC4CC4C3)nc2CCO)c1 (some centres unmarked)
132

Name the recorded IC50 for COCc1nc(N2CC3CC3C2)ccc1Cn1cc(C(=O)N[C@@H]2CCc3c2ncn3C)cn1 (some centres unmarked) .
254

For the compound shown here, COc1nc(N2CC3C(C2)C3(F)F)ccc1Cn1cnc(C(=O)N[C@@H]2CCc3c2ncn3C)c1 (some centres unmarked) , give the reported IC50.
766

Could you share which IC50 value was measured for Cn1cnc2c1CC[C@H]2NC(=O)c1cnn(Cc2cnc(N3CC4CC4C3)cc2Cl)c1 (some centres unmarked) ?
2170

Which IC50 is listed for Cn1cnc2c1CC[C@H]2NC(=O)c1cn(Cc2cnc(N3CC4CC4C3)cc2C(F)(F)F)cn1 (some centres unmarked) ?
514

Which IC50 value is on record for CC(O)c1nc(N2CC3CC3C2)ccc1Cn1cc(C(=O)N[C@@H]2CCc3c2ncn3C)cn1 (some centres unmarked) ?
139

# get_value(readout='IC50', item= Cc1nc(N2CC3C(C2)C3(F)F)ccc1Cc1cc(C(=O)N[C@@H]2CCc3c2ncn3C)n(C)n1 (some centres unmarked) )
272

What value of IC50 has been recorded for this entry: Cc1c(Cn2cc(C(=O)N[C@@H]3CCc4c3ncn4C)cn2)cnc(N2CC3C(C2)C3(F)F)c1C#N (some centres unmarked)
531

Given the compound CCc1nc(N2CC3CC3C2)ccc1Cn1cc(C(=O)N[C@@H]2CCc3c2ncn3C)cn1 (some centres unmarked) , what is its reported IC50?
249

Would you kindly share the measured IC50 for CCc1nc(N2CC3C(C2)C3(F)F)ccc1Cn1cnc(C(=O)N[C@@H]2CCc3c2ncn3C)c1 (some centres unmarked) ?
270

Return reported IC50; argument: Cn1cnc2c1CC[C@H]2NC(=O)c1cc(Cc2ccc(N3CC4C(C3)C4(F)F)nc2CO)no1 (some centres unmarked)
149

Please report the recorded IC50 for Cc1nc(N2CC3C(C2)C3(F)F)ccc1Cc1cc(C(=O)N[C@@H]2CCc3c2ncn3C)on1 (some centres unmarked) .
430

Could you share which IC50 value was measured for Cc1nc(N2CC3C(C2)C3(F)F)ccc1Cn1cc(C(=O)N[C@@H]2CCc3c2ncn3C)cn1 (some centres unmarked) ?
126

Name the reported IC50 value associated with the compound Cn1cnc2c1CC[C@H]2NC(=O)c1cc(Cc2ccc(N3CC4CC4C3)nc2C(F)F)no1 (some centres unmarked)
248

For Cn1cnc2c1CC[C@H]2NC(=O)c1cnn(Cc2ccc(N3CC4(CC4)C3)nc2Cl)c1 , what is its reported IC50?
586

Recorded IC50 of CCc1nc(N2CC3C(C2)C3(F)F)ccc1Cc1ccc(C(=O)N[C@@H]2CCc3c2ncn3C)s1 (some centres unmarked) , please.
2310

Returns the measured IC50 for the input compound. Input: Cc1nc(N2CC3C(C2)C3(F)F)ccc1Cc1ccc(C(=O)N[C@@H]2CCc3c2ncn3C)s1 (some centres unmarked)
2450

Can you look up the measured IC50 of Cn1cnc2c1CC[C@H]2NC(=O)c1cn(Cc2ccc(N3CC4(CC4)C3)nc2CO)cn1 for me?
177

// lookup IC50 for COCc1nc(N2CC3CC3C2)ccc1Cc1cc(C(=O)N[C@@H]2CCc3c2ncn3C)[nH]n1 (some centres unmarked)
776

Give the measured IC50 of CCc1nc(N2CC3CC3C2)ccc1Cc1cc(C(=O)N[C@@H]2CCc3c2ncn3C)n(CC)n1 (some centres unmarked) .
231

Would you kindly share the measured IC50 for Cc1nc(N2CC3CC3C2)ccc1Cc1cc(C(=O)N[C@@H]2CCc3c2ncn3C)co1 (some centres unmarked) ?
6270

# IC50 lookup, item CCc1nc(N2CC3CC3C2)ccc1Cn1cc(C(=O)N[C@@H]2CCc3c2ncn3C)nn1 (some centres unmarked)
297
